Cited source: patent US20260028365A1

Measured pIC50 of individual entries
Biological target: Tyk2 (Homo sapiens (Human))
Sequence (P29597 whole entry): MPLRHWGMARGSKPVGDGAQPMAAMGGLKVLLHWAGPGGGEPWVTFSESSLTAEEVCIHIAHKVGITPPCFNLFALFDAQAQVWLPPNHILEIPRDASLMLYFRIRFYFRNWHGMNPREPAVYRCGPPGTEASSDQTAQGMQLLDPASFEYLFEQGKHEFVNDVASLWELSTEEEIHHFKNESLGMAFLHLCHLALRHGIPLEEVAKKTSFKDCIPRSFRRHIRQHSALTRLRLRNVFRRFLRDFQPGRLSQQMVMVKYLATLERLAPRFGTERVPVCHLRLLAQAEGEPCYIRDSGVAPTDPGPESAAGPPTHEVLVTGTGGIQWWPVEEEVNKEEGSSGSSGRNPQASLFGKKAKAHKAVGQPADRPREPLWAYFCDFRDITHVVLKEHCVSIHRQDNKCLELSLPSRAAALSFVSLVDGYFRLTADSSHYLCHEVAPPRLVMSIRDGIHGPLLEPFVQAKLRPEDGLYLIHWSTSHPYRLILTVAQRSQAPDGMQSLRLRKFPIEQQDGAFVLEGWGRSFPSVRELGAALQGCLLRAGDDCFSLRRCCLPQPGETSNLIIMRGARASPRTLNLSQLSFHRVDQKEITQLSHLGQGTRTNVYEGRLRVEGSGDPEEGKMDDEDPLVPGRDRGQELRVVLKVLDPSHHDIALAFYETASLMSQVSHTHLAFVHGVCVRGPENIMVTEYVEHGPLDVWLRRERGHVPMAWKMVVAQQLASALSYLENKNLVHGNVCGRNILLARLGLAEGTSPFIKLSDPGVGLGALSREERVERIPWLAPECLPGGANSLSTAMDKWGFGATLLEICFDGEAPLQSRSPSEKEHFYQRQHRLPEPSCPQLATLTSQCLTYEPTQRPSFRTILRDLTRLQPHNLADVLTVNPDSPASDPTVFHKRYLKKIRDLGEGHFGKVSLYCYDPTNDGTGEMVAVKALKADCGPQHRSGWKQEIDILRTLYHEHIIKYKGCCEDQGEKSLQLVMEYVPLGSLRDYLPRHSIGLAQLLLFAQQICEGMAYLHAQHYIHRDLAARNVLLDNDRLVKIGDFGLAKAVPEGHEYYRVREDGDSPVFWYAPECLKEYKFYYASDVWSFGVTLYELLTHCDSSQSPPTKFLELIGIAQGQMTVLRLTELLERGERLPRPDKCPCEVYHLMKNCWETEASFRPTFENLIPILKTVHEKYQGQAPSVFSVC
Test: pSTAT4 Cell Assay (MSD, NK92 cells)
Assay type: cell-based
pIC50: −log10 of the molar value.

| molecule | target-system | pIC50 |
| --- | --- | --- |
| CC(=O)Nc1cc(Nc2cc(C)nc(C(C)(F)F)n2)c(-c2cc(F)n(C)n2)cn1 [Example 814] | Tyk2 (Homo sapiens (Human)) | ≥ 8.00 |
| CC(=O)Nc1cc(Nc2ccnc(C(C)(F)F)n2)c(-c2ccc(CN3C[C@H]4C[C@@H]3CO4)cn2)cn1 [Example 886] | Tyk2 (Homo sapiens (Human)) | ≥ 8.00 |
| CC(=O)Nc1cc(Nc2cc(C)nc(C(C)(F)F)n2)c(-c2cnc(CN3CCCC3)cn2)cn1 [Example 791] | Tyk2 (Homo sapiens (Human)) | ≥ 8.00 |
| COc1cc(-c2cnc(NC(C)=O)cc2Nc2cc(C)nc(C34COC(C3)C4)n2)ncn1 [Example 750] | Tyk2 (Homo sapiens (Human)) | 6.00 to 7.00 |
| CCc1cc(Nc2cc(NC(C)=O)ncc2-c2cnc(OC)cn2)nc(C(C)(F)F)n1 [Example 829] | Tyk2 (Homo sapiens (Human)) | 7.00 to 8.00 |
| CC(=O)Nc1cc(Nc2ccnc(C(C)(F)F)n2)c(-c2csc(N3CC4(COC4)C3)n2)cn1 [Example 789] | Tyk2 (Homo sapiens (Human)) | ≥ 8.00 |
| CC(=O)Nc1cc(Nc2ccnc(C(C)(F)F)n2)c(-c2nc3c(s2)CN(C)CC3)cn1 [Example 798] | Tyk2 (Homo sapiens (Human)) | ≥ 8.00 |
| CC(=O)Nc1cc(Nc2cc(C)nc(C(C)(F)F)n2)c(-c2ccc(P(C)(C)=O)cn2)cn1 [Example 916] | Tyk2 (Homo sapiens (Human)) | ≥ 8.00 |
